- STUDY_SYSTEM: RSV N-RNA complex (Human respiratory syncytial virus A)
- Construct: Full-length N was produced by co-expression with the C-terminal domain of RSV P protein in E. coli BL21(DE3); made in house; host or cells: E. coli BL21(DE3), co-transformed with pET-N and pGEX-P(161–241)
- Sequence (P03418 whole entry, looked up, the tested form may be a part, one chain of several): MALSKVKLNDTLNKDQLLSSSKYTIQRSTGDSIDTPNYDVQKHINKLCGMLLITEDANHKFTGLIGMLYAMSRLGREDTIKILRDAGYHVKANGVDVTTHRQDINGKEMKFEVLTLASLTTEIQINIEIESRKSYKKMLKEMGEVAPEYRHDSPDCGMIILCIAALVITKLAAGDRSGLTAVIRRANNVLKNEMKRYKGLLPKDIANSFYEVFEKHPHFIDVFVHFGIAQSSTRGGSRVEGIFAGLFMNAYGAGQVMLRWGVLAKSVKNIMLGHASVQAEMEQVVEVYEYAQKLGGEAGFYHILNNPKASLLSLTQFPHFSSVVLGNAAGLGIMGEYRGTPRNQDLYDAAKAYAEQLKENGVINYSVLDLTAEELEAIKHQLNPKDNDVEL
- EXPERIMENT_SUMMARY: Fluorescence polarization inhibition of N-RNA binding to fluorescent probes
- COND: probe BCN11SE 200 nM, [N-RNA] 5 µM, Tris pH 8; read-out: Fitted IC50
RESULT_TYPE: IC50 (µM)
One number for each entry, in µM.

Per the reported RSV N-RNA complex (Human respiratory syncytial virus A) data, O=C(O)c1cc(C(=O)O)n(Cc2ccc(Cl)cc2Cl)n1 has IC50 of 17
